- Tested on: anti-M2 human monoclonal antibody Z3G1
- Format: binding
Below, each of the substances is paired with its reported Signal (peptides that bind to Z3G1) value.
Answer with the value's number alone.

SUBSTANCE	Signal (peptides that bind to Z3G1)
1460 (CEVETPIRNELLTEVETPICTEVETPIRN; epitope peptide; MISC_FEATURE (1)..(1): C is an attachment site for a CLIP; MISC_FEATURE (10)..(10): E is an attachment site for a CLIP; MISC_FEATURE (11)..(11): L is an attachment site for a CLIP; MISC_FEATURE (29)..(29): N is an attachment site for a CLIP) [compound 1460]	1620
1250 (MALLTEVETPIRNEWGCRCN; epitope peptide) [compound 1250]	2604
1265 (MWLLTEVETPIRNEWGCRCN; epitope peptide) [compound 1265]	2615

Query :: Record request: Signal (peptides that bind to Z3G1) value, item 1285 (MSLLIEVETPIRNEWGCRCN; epitope peptide) [compound 1285]
Result :: 2371
